Sourced from ChEMBL document CHEMBL2021818

System: Streptococcus pyogenes
procedure text: Antibacterial activity against Streptococcus pyogenes ATCC 700294 after 24 hrs at 37 degC by CLSI protocol based microdilution method
Assay type: functional
conditions: ATCC 700294, 24 h
Property: MIC; scope: individual compounds
readout: MIC

structure string: CC[C@H]1OC(=O)[C@H](C)[C@@H](O[C@H]2C[C@@](C)(OC)[C@@H](O)[C@H](C)O2)[C@H](C)[C@@H](O[C@@H]2O[C@H](C)C[C@@H]3NC(=O)O[C@@H]23)[C@](C)(OC)C[C@@H](C)C(=O)N[C@H](C)[C@@H](O)[C@]1(C)O
readout: MIC
result: > 64 µg/mL

structure string: CCCN1C(=O)O[C@H]2[C@H](O[C@@H]3[C@@H](C)[C@H](O[C@H]4C[C@@](C)(OC)[C@@H](O)[C@H](C)O4)[C@@H](C)C(=O)O[C@H](CC)[C@@](C)(O)[C@H](O)[C@@H](C)C(=O)[C@H](C)C[C@@]3(C)OC)O[C@H](C)C[C@@H]21
readout: MIC
result: > 64 µg/mL

structure string: CC[C@H]1OC(=O)[C@H](C)[C@@H](O[C@H]2C[C@@](C)(OC)[C@@H](O)[C@H](C)O2)[C@H](C)[C@@H](O[C@@H]2O[C@H](C)C[C@H]3[C@H]2OC(=O)N3C)[C@](C)(O)C[C@@H](C)CN(C)[C@H](C)[C@@H](O)[C@]1(C)O
readout: MIC
result: > 64 µg/mL

structure string: CC[C@H]1OC(=O)[C@H](C)[C@@H](O[C@H]2C[C@@](C)(OC)[C@@H](O)[C@H](C)O2)[C@H](C)[C@@H](O[C@@H]2O[C@H](C)C[C@H](NC)[C@H]2O)[C@](C)(OC)C[C@@H](C)C(=O)N[C@H](C)[C@@H](O)[C@]1(C)O
readout: MIC
result: 64 µg/mL

structure string: CC[C@H]1OC(=O)[C@H](C)[C@@H](O[C@H]2C[C@@](C)(OC)[C@@H](O)[C@H](C)O2)[C@H](C)[C@@H](O[C@@H]2O[C@H](C)C[C@H]3[C@H]2OC(=O)N3CC)[C@](C)(OC)C[C@@H](C)C(=O)N[C@H](C)[C@@H](O)[C@]1(C)O
readout: MIC
result: > 64 µg/mL

structure string: CC[C@H]1OC(=O)[C@H](C)[C@@H](O[C@H]2C[C@@](C)(OC)[C@@H](O)[C@H](C)O2)[C@H](C)[C@@H](O[C@@H]2O[C@H](C)C[C@H](N(C)C)[C@H]2O)[C@](C)(OC)C[C@@H](C)C(=O)N[C@H](C)[C@@H](O)[C@]1(C)O
readout: MIC
result: 4 µg/mL

structure string: CC[C@H]1OC(=O)[C@H](C)[C@@H](O[C@H]2C[C@@](C)(OC)[C@@H](O)[C@H](C)O2)[C@H](C)[C@@H](O[C@@H]2O[C@H](C)C[C@@H]3NC(=O)O[C@@H]23)[C@](C)(O)C[C@@H](C)CN(C)[C@H](C)[C@@H](O)[C@]1(C)O
readout: MIC
result: > 64 µg/mL
